For each of the molecules below, state its pIC50.
# Organism: Rattus norvegicus
# measurement_notes: In vitro inhibition of [3H]dopamine uptake in rat corpus striatum homogenates.
# Assay type: functional
pIC50 is a log-scale quantity: -log10 of the concentration expressed in molar.

Query: I would be grateful if you could share the reported pIC50 for CC1(C)CN(C2CC(c3ccsc3)c3ccc(Cl)cc32)CCN1 (stereo in doubt; (+)-54) .
Reply: 7.57

Query: I would be grateful if you could share the reported pIC50 for CN1CCN(C2CC(c3ccc(F)cc3)c3ccccc32)CC1(C)C (single isomer, unassigned; (+)) .
Reply: 7.60

Query: I would be grateful if you could share the reported pIC50 for CC1(C)CN(C2CC(c3ccsc3)c3ccc(Cl)cc32)CCN1 (single isomer, unassigned; (-)) .
Reply: 5.57

Query: I would be grateful if you could share the reported pIC50 for CN1CCN(C2CC(c3ccc(F)cc3)c3ccc(F)cc32)CC1(C)C (stereo in doubt; (+)-40) .
Reply: 8.15

Query: I would be grateful if you could share the reported pIC50 for CN1CCN(C2CC(c3ccc(F)cc3)c3ccc(Cl)cc32)CC1(C)C (stereo in doubt; (+)-28) .
Reply: 7.80

Query: I would be grateful if you could share the reported pIC50 for CN1CCN(C2CC(c3ccc(F)cc3)c3ccc(F)cc32)CC1(C)C (stereo in doubt; (-)-40) .
Reply: 5.40

Query: I would be grateful if you could share the reported pIC50 for CN1CCN(C2CC(c3ccc(F)cc3)c3ccc(Cl)cc32)CC1(C)C (stereo in doubt; (-)-28) .
Reply: 5.49

Query: I would be grateful if you could share the reported pIC50 for CN1CCN(C2CC(c3ccc(F)cc3)c3ccccc32)CC1(C)C (stereo in doubt; (-)-39) .
Reply: 5.28
